System: VDR:RXRa (NR concentration 270 nM, RXRa partner concentration 90 nM)
Assay: PBM binding z-score (relative to random genomic background probes); higher = stronger binding; sequences stand for … in GC…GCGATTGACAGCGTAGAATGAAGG
Here the recorded PBM binding z-score is given for each entry.
// no unit, no text: just the number

1) ACTATTAGTTGACTAAGGGCAACCGATACGACGC; 1.29
2) ACAGACAGGTGATGAAGGTAAGTCAGGCTATCAT; -0.133
3) GCTCGGAGGACAAGGTCAGACCTTTGTCCGTAGA; 1.97
4) TTGAGTAGGTTAGGGGCATTCAGAATGGCGTCGA; 0.889

Problem: What does the record list as PBM binding z-score for TCTAGTTGGTCACGGAGGCCACACACGACGGGTA ?
Solution: 2.19

Problem: Need PBM binding z-score of ACTAGCAGGCCAAGTTTGGGTCACTCAAACAAAG , thanks.
Solution: 0.525

* * *

Tested on: PPARg:RXRa 270nM:90nM, anti-RXR (NR concentration 270 nM, RXRa partner concentration 90 nM)
Assay: PBM binding z-score (relative to random genomic background probes); higher = stronger binding; sequences stand for … in GC…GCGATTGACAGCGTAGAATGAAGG
READOUT_NAME: PBM binding z-score
Please reply with the number alone, leaving off any unit.

1. TCTAGTTGGTCACGGCGGTCACACACGACGGGTA; 1.99
2. AGAATGAGGTTACCAAAGATCATGGAAACGCTTG; 2.95
3. TGAATGAGGTTAAAGATCAGCGAACGTGGCGTCG; 6.26
4. TCTAGTTGGTCAAAGGTCACACAATCGAAATGCG; 9.87
5. TCACATAGGTAAACAGGTGAAAGTCCGTAAGTTA; 2.75

Problem: I have this sequence here, CTTTACGGGTCACTCCAGGTTATAGCATCGGAGT , and I need its recorded PBM binding z-score.
Solution: 4.7

Problem: # get_value(readout='PBM binding z-score', item= CGTCAAAGTCCAACTAAGGTAACGTAAAGCACGC )
Solution: -0.0783

Problem: Form field: reported PBM binding z-score of CGTCCAAGGTGATAGGAGGTCAGTGAAGACAGAT
Solution: 1.49

Problem: Query: PBM binding z-score; subject: CGTCCTAGGTCAAGGTCAGTGAAAGAGACTCGAA
Solution: 4.45

Problem: Which PBM binding z-score value belongs to CTACCAAGGTGAAGAAGGTCGTTGATTACTATTC ?
Solution: 0.572

Problem: For GCTTGTAGATCAAGGCTAAGAAAGACTAAGCTAA , what is its reported PBM binding z-score?
Solution: -0.418

Problem: GET /values?readout=PBM binding z-score&item= GCAGACAGGTGAAACGCAGGTAACCCAGGGTGGC
Solution: -0.135

Problem: Need PBM binding z-score of CGTCCAAGTTCAACTAAGGTAACGTAAAGCACGC , thanks.
Solution: 1.5

* * *

Test system: PPARg:RXRa 30nM:10nM, anti-RXR (NR concentration 30 nM, RXRa partner concentration 10 nM)
Experiment: PBM binding z-score (relative to random genomic background probes); higher = stronger binding; sequences stand for … in GC…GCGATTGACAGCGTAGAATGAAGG
Label Y when PBM binding z-score >= 2; otherwise N.

Examples from the recorded data:
1. TCTTGTAGATCAATAGAGGTTAAGAGAGTGCGCT; Y
2. CATACAGGGTGAGCTAGGCCAGAGTAGGGACGGC; N
3. CCTGACGGGTCACTGACAGGTTATAGCATTTGGA; N

Problem: Could you please find out whether TATACAGGGTCAAATGCCAGAGTACGAATGTCGA has PBM binding z-score that meets 2 or exceeds it?
Solution: Y

Problem: Exam item: decide whether the reported PBM binding z-score for TCATATAGGTAATACAGGTGACAGTCGGCATCTA is at least 2.
Solution: Y

Problem: Identify whether the reported PBM binding z-score of the following sequence is 2 or greater: CCCACTGGGCCATCAGGTCATTGATATCAACGTT
Solution: N

Problem: Would you say ATCTCTAGGTAACGATAGTTCAGTGAATGCAAAT shows PBM binding z-score at minimum 2?
Solution: N

Problem: Check the entry TCATATAGGAAAAGGTGAAAGTCGAACGATATGA : does PBM binding z-score equal or exceed 2?
Solution: Y

Problem: API: above_or_equal(metric=PBM binding z-score, cutoff=2) for item AATACATGGTCATCGTAGGCCAGAGTACGCACAG
Solution: N

Problem: Confirm if PBM binding z-score reported for the sequence CAAACTAGGTCAAAGGTAAAAGTCGAGCCAACCA is 2 or above.
Solution: Y

Problem: Answer whether PBM binding z-score of GCTAGTTGGTCAGTAAAAGGTCAAACACCGGTCG is greater than or equal to 2.
Solution: Y

Problem: Is PBM binding z-score for GCTGCTAGGTCAACTGATGGTCTGCTAAAGCTCG at or above 2?
Solution: N

* * *

Tested on: PPARg:RXRa 90nM:30nM, anti-RXR (NR concentration 90 nM, RXRa partner concentration 30 nM)
Assay: PBM binding z-score (relative to random genomic background probes); higher = stronger binding; sequences stand for … in GC…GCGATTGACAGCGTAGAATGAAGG
Note to self: class = bucket of PBM binding z-score, per lower segment: < 0.5; middle segment: ≥ 0.5 and < 3; upper segment: ≥ 3

1) TCTAGCAGGCCAGAGGGTCACGCAAGAGGTACGG; middle segment

Problem: Kindly identify the class of CCTGCTAGGTCATGGTCAGCTGATCTACAGTATG .
Solution: middle segment

Problem: Just checking, what class would you give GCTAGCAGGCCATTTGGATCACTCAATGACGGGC here?
Solution: lower segment

* * *

Quick reference for PBM binding z-score among some sequences
Test system: PXR:RXRa (NR concentration 270 nM, RXRa partner concentration 90 nM)
Experiment: PBM binding z-score (relative to random genomic background probes); higher = stronger binding; sequences stand for … in GC…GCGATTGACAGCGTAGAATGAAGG
Returns: the value as a bare number; no unit string appended.

Below: 2 sequences and their reported PBM binding z-score.
1) CAAACTAGGTCAAGGTGAAAGTCGGTTTGTGCCA; 1.65
2) AGAACGGGGGCACGCTGAGTTGATAGCAGAGTAG; 3.72

The record that follows has no PBM binding z-score shown yet.
Problem: Field: PBM binding z-score (PXR:RXRa (NR concentration 270 nM, RXRa partner concentration 90 nM)). Entry: CCAGACAGGTGAAAAGTAACTCAGTCTGGTACGC
Solution: -0.0943

* * *

System: PXR:RXRa (NR concentration 270 nM, RXRa partner concentration 90 nM)
Experiment: PBM binding z-score (relative to random genomic background probes); higher = stronger binding; sequences stand for … in GC…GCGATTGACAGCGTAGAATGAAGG
# thresholds on PBM binding z-score define classes: low (below 0.9), medium (0.9 to below 2), high (2 or more)

1. TGATATAGGTAAAAGGTGAAAGTCGGTGTGGTAA; medium
2. CCTCGGAGGACAGAAGGTTAGAGCTGTCCGCTTT; low
3. TCGAGTAGGTTACCAATCGGGCATTCAGCTTTCT; low

Problem: Determine which band this sequence sits in: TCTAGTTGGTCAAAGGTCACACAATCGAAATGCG
Solution: high

Problem: Which class holds CCTACTGGGCCAACGGTCATTGATTCCAATGCTC ?
Solution: low

Problem: Band assignment needed for CCTTACGGGTCACTCCAGGTTATAGCTTCGGAGT please.
Solution: high

Problem: Quick check: band for ATATGTAGGTTAGCTGGGGTCATTAAGACTAGGC
Solution: high

Problem: Please indicate the class for TGAATTAGGTTAAAGATCAGGGAACGTGGCGTCG based on its PBM binding z-score.
Solution: low

Problem: Given GATACAGGGTCAAGTCCAGAGTACGCGTATTGAT , name the class its PBM binding z-score places it in.
Solution: high

Problem: Which class holds ATATGTAGGTTTGCTGGGGTCATTCAGACTAGGC ?
Solution: high

Problem: In plain terms, what class is ATCACTAGGTAAAGTTCAGTGAAAGATCGATAGA ?
Solution: medium

* * *

Test system: PXR:RXRa (NR concentration 270 nM, RXRa partner concentration 90 nM)
Assay: PBM binding z-score (relative to random genomic background probes); higher = stronger binding; sequences stand for … in GC…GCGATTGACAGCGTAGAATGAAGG
Tag: 1 if measured PBM binding z-score is not below 1, -1 if it is.

Examples with answers:
1. AGAACGAGGACACGCTGAGTTGATAGCAGAGTAG; -1
2. CCGACTGGCGCATAAGGTTACCATAAGCCAGCCC; -1

Problem: Reported PBM binding z-score at or above 1? GCTAGCAGGCTATTTGGGTCACTCAATGACGGGC
Solution: -1

Problem: Record ACAGACAGCTGAGTGAAGGTAACTCAGCTGGACG ; criterion: PBM binding z-score no lower than 1. Met?
Solution: -1

Problem: Answer whether PBM binding z-score of TCTTTTAGTTGAAGGGCAACCGACGAGTCCGTTT is greater than or equal to 1.
Solution: -1

Problem: Exam item: decide whether the reported PBM binding z-score for TCAGACAGGTGTAGGTAACTCAGGTACGCAGTCG is at least 1.
Solution: -1

Problem: Reported PBM binding z-score at or above 1? CAAACTACGTCAAGAGGTCAAAGTCCGCTTCCCG
Solution: 1

Problem: hey, is PBM binding z-score for this one >= 1? ATCTCCAGGTAACAAGTTCAGTGAAAGAGAGGAC
Solution: 1

Problem: Confirm if PBM binding z-score reported for the sequence TCTGCTAGGTCAGTTGGTCTGCTAACGAGCTGCC is 1 or above.
Solution: -1

Problem: Reported PBM binding z-score at or above 1? CGTTACGGGTCAAGGTTATAGCACGGGTGGTACG
Solution: 1

Problem: Identify whether the reported PBM binding z-score of the following sequence is 1 or greater: TCTAGTTGGTCACGGAGGTCACATACGACGGGTA
Solution: 1

Problem: State whether the measured PBM binding z-score reaches 1, counting equality as reaching it, for ACTCGGAGGACAAAGGTCAGAGCGACGCCAGTGA
Solution: 1

Problem: Is reported PBM binding z-score greater than or equal to 1 here: ACTAGCAGGCCAAGGGTCACTCGAGATTAGTCCG
Solution: 1

Problem: Is PBM binding z-score for CGTACTAGGTCATCCAGGACAGTGAATACATTGA at or above 1?
Solution: 1
